# Tested on: NB4 human promyelocytic leukaemia
# assay-procedure: Cytotoxicity on NB4 tumour cells (sulphorodamine B)
# Assay type: cell-based
# assay-setup: Homo sapiens, read-out: IC50 ± SD, NB4 (concentration which inhibits the 50% of cell survival), NB4 tumour cells, 24 h treatment, then other 48 h in drug-free medium
pIC50: −log10 of the molar value.
assay-metric: pIC50

**Q:** Given the entry COC(=O)c1ccc(CON=Cc2ccc(/C=C/C(=O)NO)cc2)cc1 , report its measured pIC50.
**A:** 6.10 to 6.22

**Q:** Item C=CCON=Cc1ccc(/C=C/C(=O)NO)cc1 has what recorded pIC50?
**A:** 5.54 to 5.85

**Q:** Which pIC50 reading was recorded for the molecule O=C(CCc1ccc(C=NOCc2ccc([N+](=O)[O-])cc2)cc1)NO ?
**A:** 6.02

**Q:** Could you tell me which pIC50 is on file for O=C(/C=C/c1ccc(C=NOCCN2CCOCC2)cc1)NO ?
**A:** 5.54 to 5.85

**Q:** What pIC50 value was documented for this molecule, O=C(/C=C/c1ccc(C=NNC(=O)c2ccc(Cl)cc2)cc1)NO ?
**A:** 6.10 to 6.22

**Q:** Find the recorded pIC50 belonging to O=C(/C=C/c1ccc2[nH]ccc2c1)NO and report it.
**A:** 5.54 to 5.85

**Q:** Which value of pIC50 has been reported for O=C(/C=C/c1ccc(C=NOCc2ccccc2)cc1)NO in the records?
**A:** 6.10 to 6.22

**Q:** Returns the measured pIC50 for the input molecule. Input: Nc1ccccc1NC(=O)/C=C/c1ccc(C=NOCc2ccc([N+](=O)[O-])cc2)cc1
**A:** < 4.70

**Q:** Query: pIC50; subject: Cl.O=C(/C=C/c1cccc(C=NOCCN2CCOCC2)c1)NO [ST3576, hydrochloride]
**A:** 5.54 to 5.85

**Q:** Please report the recorded pIC50 for O=C(O)/C=C/c1ccc(C=NOCc2ccccc2)cc1 .
**A:** < 4.70

---

# System: NB4 human promyelocytic leukaemia
# assay-procedure: Cytotoxicity on NB4 tumour cells (sulphorodamine B)
# Format: cell-based
# assay-setup: Homo sapiens, read-out: IC50 ± SD, NB4 (concentration which inhibits the 50% of cell survival), NB4 tumour cells, 24 h treatment, then other 48 h in drug-free medium
Counter-ions that a name gives are not always drawn.
assay-metric: IC50

**Q:** Param item = Nc1ccccc1NC(=O)/C=C/c1ccc(C=NOCCN2CCOCC2)cc1 [ST3573, hydrochloride] ; retrieve measured IC50.
**A:** 8.87 µM

**Q:** # query: IC50 of entry O=C(/C=C/c1ccc(C=NOc2ccccc2)cc1)NO
**A:** 1.4 to 2.9 µM

**Q:** What does the record list as IC50 for O=C(/C=C/c1ccc(C=NOCc2ccc([N+](=O)[O-])cc2)cc1)NO ?
**A:** 0.6 to 0.8 µM

**Q:** What measured IC50 goes with O=C(O)/C=C/c1ccc(C=NOCc2ccc([N+](=O)[O-])cc2)cc1 ?
**A:** > 20 µM

---

# Tested on: NCI-H460 non-small cell carcinoma cells
# assay-procedure: Cytotoxicity on NCI-H460 tumour cells (sulphorodamine B)
# Type: cell-based, human
# assay-setup: NCI-H460 tumour cells; comparison among the compounds
# Procedure: To test the effects of the compounds on cell growth, NB4 human promyelocytic leukaemia, NCI-H460 non-small cell carcinoma cells and HCT-116 human colon carcinoma cells were used. […] Tumour cells were seeded in 96-well tissue culture plates (Corning) at approximately 10% confluence and were allowed to attach and recover for at least 24 h. […] The survival cell was determined as optical density by a Multiskan spectrofluorimeter at 540 nm. […]
assay-metric: cytotoxic effect on survival of NCI-H460 tumour cells (in words)

Worked cases, answers included:
INSERT INTO assay_data (compound, measured_value) VALUES
  ('O=C(/C=C/c1ccc2[nH]ccc2c1)NO [ST2880]', 'minor cytotoxic effect'),
  ('O=C(/C=C/c1ccc(C=NOc2ccccc2)cc1)NO [ST2985]', 'minor cytotoxic effect'),
  ('O=C(CCc1ccc(C=NOCc2ccc([N+](=O)[O-])cc2)cc1)NO [ST3330]', 'minor cytotoxic effect'),
  ('Cl.O=C(/C=C/c1cccc(C=NOCCN2CCOCC2)c1)NO [ST3576]', 'minor cytotoxic effect');

# evaluate next
**Q:** What measured cytotoxic effect on survival of NCI-H460 tumour cells (in words) goes with O=C(/C=C/c1ccc(C=NO)cc1)NO [ST2983] ?
**A:** minor cytotoxic effect
